Let's look at some binders and their measured EC50.
- targetDesc: human MCH receptor expressed from the open reading frame cDNA SEQ. ID. NO. 1 in 293-AEQ17 cells (human, UniProt Q99705 1-353)
- Sequence (Q99705 whole entry): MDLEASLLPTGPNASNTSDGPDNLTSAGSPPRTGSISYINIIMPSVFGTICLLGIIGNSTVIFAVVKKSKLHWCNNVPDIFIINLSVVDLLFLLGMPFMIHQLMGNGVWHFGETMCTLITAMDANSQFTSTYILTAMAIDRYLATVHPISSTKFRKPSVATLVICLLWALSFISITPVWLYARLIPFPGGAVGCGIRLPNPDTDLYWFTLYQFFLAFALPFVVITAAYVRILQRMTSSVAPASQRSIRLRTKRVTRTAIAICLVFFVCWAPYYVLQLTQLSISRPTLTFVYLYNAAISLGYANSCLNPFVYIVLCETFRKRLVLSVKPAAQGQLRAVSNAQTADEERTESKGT
- procedureDetails: cell-based or functional assay
Bridges are numbered along the chain shown (N, C = ends). Where no end group is shown, it is not given here.
Number only, in nM; omit the unit.

Some entries whose results are on file:
- Ac-RCMLGRVYRPC-NH2 (disulfide 2-11 (inferred), Corresponds to MCH positions 6-16; also called ID; NO; 7 MCH analog) [truncated MCH analog SEQ. ID. NO. 7: Ac-Arg-Cys-Met-Leu-Gly-Arg-Val-Tyr-Arg-Pro-Cys-amide]: 18
- Ac-CMLGRVYRPC-NH2 (disulfide 1-10; SMILES CSCC[C@@H]1NC(=O)[C@@H](NC(C)=O)CSSC[C@@H](C(N)=O)NC(=O)[C@@H]2CCCN2C(=O)[C@H](CCCNC(=N)N)NC(=O)[C@H](Cc2ccc(O)cc2)NC(=O)[C@H](C(C)C)NC(=O)[C@H](CCCNC(=N)N)NC(=O)CNC(=O)[C@H](CC(C)C)NC1=O) [truncated MCH analog SEQ. ID. NO. 9: Ac-Cys-Met-Leu-Gly-Arg-Val-Tyr-Arg-Pro-Cys-amide]: 300
- Ac-RCMLGRVFRPCY-NH2 (disulfide 2-11; SMILES CSCC[C@@H]1NC(=O)[C@@H](NC(=O)[C@H](CCCNC(=N)N)NC(C)=O)CSSC[C@@H](C(=O)N[C@@H](Cc2ccc(O)cc2)C(N)=O)NC(=O)[C@@H]2CCCN2C(=O)[C@H](CCCNC(=N)N)NC(=O)[C@H](Cc2ccccc2)NC(=O)[C@H](C(C)C)NC(=O)[C@H](CCCNC(=N)N)NC(=O)CNC(=O)[C@H](CC(C)C)NC1=O) [truncated MCH analog SEQ. ID. NO. 8: Ac-Arg-Cys-Met-Leu-Gly-Arg-Val-Phe-Arg-Pro-Cys-Tyr-amide]: 36

Turning to the following binder.
Which EC50 reading was recorded for the binder Ac-CMLGRVYRPCWQV (disulfide 1-10 (inferred)) [MCH analog SEQ. ID. NO. 12: Ac-Cys-Met-Leu-Gly-Arg-Val-Tyr-Arg-Pro-Cys-Trp-Gln-Val] ?
492
